experimental_protocol: Biodistribution in tumor-bearing mice
Type: in vivo
assay_setup: C57BL/6, mouse, tumor, iv, 7.4 kBq/100 µL, total radioactivity; 3 h after i.v. injection; Suppl. Table 1; mean ± SD, n = 4
Positions of bridges follow the written chain, without caps; N, C: chain ends. Non-standard residues stand in square brackets, D forms with d. Residues, ends and D or L forms follow the SMILES beside them. *: point of attachment. DOTA = O=C(O)CN1CCN(CC(=O)O)CCN(CC(=O)*)CCN(CC(=O)O)CC1; Nle = CCCC[C@H](N)C(=O)O
measure: tissue uptake at 3 h (%ID/g)
Supply the numeric figure in %ID/g, leaving out any unit text.

What value of measured tissue uptake at 3 h is listed for CCCC[C@H](NC(=O)CNC(=O)CNC(=O)CN1CCN(CC(=O)O)CCN(CC(=O)O)CCN(CC(=O)O)CC1)C(=O)N[C@H]1CC(=O)NCCCC[C@@H](C(N)=O)NC(=O)[C@H](Cc2c[nH]c3ccccc23)NC(=O)[C@H](CCCNC(=N)N)NC(=O)[C@@H](Cc2ccccc2)NC(=O)[C@H](Cc2c[nH]cn2)NC1=O [[^111In]In-DOTA-GGNle-CycMSHhex, metal not drawn] ({DOTA}-GG[Nle]DH[dF]RWK-NH2; lactam 4-9) ? 16.5

====

experimental_protocol: Log D7.4 measurements (1-octanol / phosphate buffer)
Assay type: physicochemical
assay_setup: 1-octanol / 25 mM phosphate buffer pH 7.4; mean ± SD
Positions of bridges follow the written chain, without caps; N, C: chain ends. Non-standard residues stand in square brackets, D forms with d. Residues, ends and D or L forms follow the SMILES beside them. *: point of attachment. DOTA = O=C(O)CN1CCN(CC(=O)O)CCN(CC(=O)*)CCN(CC(=O)O)CC1; Nle = CCCC[C@H](N)C(=O)O
measure: logD
Kindly provide the number alone.

I have this compound here, CCCC[C@H](NC(=O)CNC(=O)CNC(=O)CN1CCN(CC(=O)O)CCN(CC(=O)O)CCN(CC(=O)O)CC1)C(=O)N[C@H]1CC(=O)NCCCC[C@@H](C(N)=O)NC(=O)[C@H](Cc2c[nH]c3ccccc23)NC(=O)[C@H](CCCNC(=N)N)NC(=O)[C@@H](Cc2ccccc2)NC(=O)[C@H](Cc2c[nH]cn2)NC1=O [[^111In]In-DOTA-GGNle-CycMSHhex, metal not drawn] ({DOTA}-GG[Nle]DH[dF]RWK-NH2; lactam 4-9) , and I need its recorded logD. -3.45

====

experimental_protocol: Biodistribution in tumor-bearing mice
Type: in vivo
assay_setup: C57BL/6, mouse, thyroid, iv, 7.4 kBq, total radioactivity; 3 h after i.v. injection; Suppl. Table 1; mean ± SD, n = 4; read-out: Biodistribution of radioactivity, Thyroid
Positions of bridges follow the written chain, without caps; N, C: chain ends. Non-standard residues stand in square brackets, D forms with d. Residues, ends and D or L forms follow the SMILES beside them. *: point of attachment. DOTA = O=C(O)CN1CCN(CC(=O)O)CCN(CC(=O)*)CCN(CC(=O)O)CC1; Nle = CCCC[C@H](N)C(=O)O
measure: tissue uptake dose at 3 h (%ID)
# value in %ID; strip the unit string

Quick check: tissue uptake dose at 3 h of CCCC[C@H](NC(=O)CNC(=O)CNC(=O)CN1CCN(CC(=O)O)CCN(CC(=O)O)CCN(CC(=O)O)CC1)C(=O)N[C@H]1CC(=O)NCCCC[C@@H](C(N)=O)NC(=O)[C@H](Cc2c[nH]c3ccccc23)NC(=O)[C@H](CCCNC(=N)N)NC(=O)[C@@H](Cc2ccccc2)NC(=O)[C@H](Cc2c[nH]cn2)NC1=O [[^111In]In-DOTA-GGNle-CycMSHhex, metal not drawn] ({DOTA}-GG[Nle]DH[dF]RWK-NH2; lactam 4-9) ? 0.01

====

experimental_protocol: Biodistribution in tumor-bearing mice
Format: in vivo
assay_setup: C57BL/6, mouse, stomach, iv, 7.4 kBq, total radioactivity; 3 h after i.v. injection; Suppl. Table 1; mean ± SD, n = 4; read-out: Biodistribution of radioactivity, Stomach
Positions of bridges follow the written chain, without caps; N, C: chain ends. Non-standard residues stand in square brackets, D forms with d. Residues, ends and D or L forms follow the SMILES beside them. *: point of attachment. DOTA = O=C(O)CN1CCN(CC(=O)O)CCN(CC(=O)*)CCN(CC(=O)O)CC1; Nle = CCCC[C@H](N)C(=O)O
measure: tissue uptake dose at 3 h (%ID)
# output: bare number, implied unit %ID

Value lookup for tissue uptake dose at 3 h; key = CCCC[C@H](NC(=O)CNC(=O)CNC(=O)CN1CCN(CC(=O)O)CCN(CC(=O)O)CCN(CC(=O)O)CC1)C(=O)N[C@H]1CC(=O)NCCCC[C@@H](C(N)=O)NC(=O)[C@H](Cc2c[nH]c3ccccc23)NC(=O)[C@H](CCCNC(=N)N)NC(=O)[C@@H](Cc2ccccc2)NC(=O)[C@H](Cc2c[nH]cn2)NC1=O [[^111In]In-DOTA-GGNle-CycMSHhex, metal not drawn] ({DOTA}-GG[Nle]DH[dF]RWK-NH2; lactam 4-9) 0.2

====

experimental_protocol: Biodistribution in tumor-bearing mice
Type: in vivo
assay_setup: C57BL/6, mouse, intestine, iv, 7.4 kBq, total radioactivity; 3 h after i.v. injection; Suppl. Table 1; mean ± SD, n = 4; read-out: Biodistribution of radioactivity, Intestine
Positions of bridges follow the written chain, without caps; N, C: chain ends. Non-standard residues stand in square brackets, D forms with d. Residues, ends and D or L forms follow the SMILES beside them. *: point of attachment. DOTA = O=C(O)CN1CCN(CC(=O)O)CCN(CC(=O)*)CCN(CC(=O)O)CC1; Nle = CCCC[C@H](N)C(=O)O
measure: tissue uptake dose at 3 h

tissue uptake dose at 3 h lookup needed for CCCC[C@H](NC(=O)CNC(=O)CNC(=O)CN1CCN(CC(=O)O)CCN(CC(=O)O)CCN(CC(=O)O)CC1)C(=O)N[C@H]1CC(=O)NCCCC[C@@H](C(N)=O)NC(=O)[C@H](Cc2c[nH]c3ccccc23)NC(=O)[C@H](CCCNC(=N)N)NC(=O)[C@@H](Cc2ccccc2)NC(=O)[C@H](Cc2c[nH]cn2)NC1=O [[^111In]In-DOTA-GGNle-CycMSHhex, metal not drawn] ({DOTA}-GG[Nle]DH[dF]RWK-NH2; lactam 4-9) , thanks. 0.6 %ID

====

measurement_target: MC1R (B16F10 melanoma cells) (Mus musculus)
Construct: endogenous in cells
Sequence (Q01727 whole entry): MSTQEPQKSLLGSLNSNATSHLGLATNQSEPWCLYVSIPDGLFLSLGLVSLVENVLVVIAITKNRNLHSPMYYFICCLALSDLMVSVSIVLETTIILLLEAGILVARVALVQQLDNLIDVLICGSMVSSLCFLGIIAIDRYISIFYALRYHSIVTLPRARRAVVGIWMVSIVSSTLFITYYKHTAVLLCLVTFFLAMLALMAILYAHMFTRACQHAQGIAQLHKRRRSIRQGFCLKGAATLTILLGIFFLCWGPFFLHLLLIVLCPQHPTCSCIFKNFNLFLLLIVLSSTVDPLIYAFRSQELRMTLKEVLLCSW
experimental_protocol: Receptor binding assay: competitive inhibition of [^125I]I-Tyr^2-NDP-MSH bound to B16F10 melanoma cells
assay_setup: competition with [^125I]I-Tyr^2-NDP-MSH, 37 °C, 1 h, brackets = 95% confidence interval
Positions of bridges follow the written chain, without caps; N, C: chain ends. Non-standard residues stand in square brackets, D forms with d. Residues, ends and D or L forms follow the SMILES beside them. *: point of attachment. X1 = O=C(Cn1cc(COCC(CO)(CO)CI)nn1)*; Nle = CCCC[C@H](N)C(=O)O
measure: Ki
Answer with the figure and its unit, nothing else.

Before answering, review these 3 worked examples.
1) CCCC[C@H](NC(=O)CNC(=O)CNC(=O)[C@@H](CCCNC(=N)N)NC(=O)[C@@H](CCC(=O)O)NC(=O)Cn1cc(COCC(CO)(CO)CI)nn1)C(=O)N[C@H]1CC(=O)NCCCC[C@@H](C(N)=O)NC(=O)[C@H](Cc2c[nH]c3ccccc23)NC(=O)[C@H](CCCNC(=N)N)NC(=O)[C@@H](Cc2ccccc2)NC(=O)[C@H](Cc2c[nH]cn2)NC1=O [NpG-GGN4a] (X1-[dE][dR]GG[Nle]DH[dF]RWK-NH2; lactam 6-11): 1.37 nM
2) CCCC[C@H](NC(=O)CNC(=O)CNC(=O)[C@@H](CCC(=O)O)NC(=O)[C@@H](CCC(=O)O)NC(=O)Cn1cc(COCC(CO)(CO)CI)nn1)C(=O)N[C@H]1CC(=O)NCCCC[C@@H](C(N)=O)NC(=O)[C@H](Cc2c[nH]c3ccccc23)NC(=O)[C@H](CCCNC(=N)N)NC(=O)[C@@H](Cc2ccccc2)NC(=O)[C@H](Cc2c[nH]cn2)NC1=O [NpG-GGN3a] (X1-[dE][dE]GG[Nle]DH[dF]RWK-NH2; lactam 6-11): 14.9 nM
3) CCCC[C@H](NC(=O)CNC(=O)CNC(=O)[C@@H](CCC(=O)O)NC(=O)Cn1cc(COCC(CO)(CO)CI)nn1)C(=O)N[C@H]1CC(=O)NCCCC[C@@H](C(N)=O)NC(=O)[C@H](Cc2c[nH]c3ccccc23)NC(=O)[C@H](CCCNC(=N)N)NC(=O)[C@@H](Cc2ccccc2)NC(=O)[C@H](Cc2c[nH]cn2)NC1=O [NpG-GGN2a] (X1-[dE]GG[Nle]DH[dF]RWK-NH2; lactam 5-10): 3.24 nM

What is its Ki for MC1R (B16F10 melanoma cells) (Mus musculus)? Entry: CCCC[C@H](NC(=O)CNC(=O)CNC(=O)Cn1cc(COCC(CO)(CO)CI)nn1)C(=O)N[C@H]1CC(=O)NCCCC[C@@H](C(N)=O)NC(=O)[C@H](Cc2c[nH]c3ccccc23)NC(=O)[C@H](CCCNC(=N)N)NC(=O)[C@@H](Cc2ccccc2)NC(=O)[C@H](Cc2c[nH]cn2)NC1=O [NpG-GGN1a] (X1-GG[Nle]DH[dF]RWK-NH2; lactam 4-9) 2.81 nM
